Experiment: Pharmacokinetic study in dogs (oral / intravenous), systemic half-life by LC-MS/MS
Type: in vivo, dogs (beagle)
Conditions: Dog; systemic half-life of intact prodrug; SD in parenthesis
assay endpoint: T1/2 Prodrug (min)

// solved cases for T1/2 Prodrug follow
Query T1/2 Prodrug for COCCCOc1ccnc(C[S+]([O-])c2nc3ccccc3n2S(=O)(=O)c2ccc(C(=O)O)cc2)c1C (centres unmarked) [Compound 33]
44.8

Provide T1/2 Prodrug value for the following compound: Cc1cc(OCC(=O)O)cc(C(C)C)c1S(=O)(=O)n1c([S+]([O-])Cc2nccc(OCC(F)(F)F)c2C)nc2ccccc21 (centres unmarked) [Compound 17]
89.4

# return recorded T1/2 Prodrug for entry Cc1ccc(C(=O)O)cc1S(=O)(=O)n1c([S+]([O-])Cc2nccc(OCC(F)(F)F)c2C)nc2ccccc21 (centres unmarked) [Compound 13]
7.32

In one line, give reported T1/2 Prodrug of the entry COCCCOc1ccnc(C[S+]([O-])c2nc3ccccc3n2S(=O)(=O)c2cc(C(=O)O)ccc2C)c1C (centres unmarked) [Compound 31] .
50.6

Give the measured T1/2 Prodrug for Cc1c(OCC(F)(F)F)ccnc1C[S+]([O-])c1nc2ccccc2n1S(=O)(=O)c1ccc(C(=O)O)cc1 (centres unmarked) [Compound 18]
5.39

(A) COCCCOc1ccnc(C[S+]([O-])c2nc3ccccc3n2S(=O)(=O)c2cccc(C(=O)O)c2)c1C (centres unmarked) [Compound 30]
(B) COc1ccc(C(=O)O)cc1S(=O)(=O)n1c([S+]([O-])Cc2nccc(OCC(F)(F)F)c2C)nc2ccccc21 (centres unmarked) [Compound 14]
(C) COCCCOc1ccnc(C[S+]([O-])c2nc3ccccc3n2S(=O)(=O)c2c(C)cc(OCC(=O)O)cc2C)c1C (centres unmarked) [Compound 32]
(D) Cc1ccc(S(=O)(=O)n2c([S+]([O-])Cc3nccc(OCC(F)(F)F)c3C)nc3ccccc32)cc1CCC(=O)O (centres unmarked) [Compound 19]
(E) Cc1c(OCC(F)(F)F)ccnc1C[S+]([O-])c1nc2ccccc2n1S(=O)(=O)c1cccc(C(=O)O)c1 (centres unmarked) [Compound 7]
Provide the items ranked by increasing T1/2 Prodrug. // respond by listing labels in the order requested
B, E, C, A, D
(B: 7.08 min, E: 12.4 min, C: 31.6 min, A: 67.2 min, D: 110 min)
